Origin of values: the supplement of paper PMC10811239

tested on: LEGO organoid PT (PTEN-/-; TP53-/-); test: bioluminescence (viable cell) signal fold change after vs before treatment, normalised to DMSO (ratio); higher = more tumour cell growth / less inhibition; conditions: 10 µM; treatment time 6 days
Class field: derived from bioluminescence; ranges low (below 0.8), mid (0.8 to below 1), high (1 or more)

For this molecule, which bin applies? COc1ccc(CNc2nc(N3CCC[C@H]3CO)ncc2C(=O)NCc2ncccn2)cc1Cl [Avanafil]
mid

Textbook exercise: identify the category of the molecule given here, Cl.Nc1c2c(nc3ccccc13)CCCC2.O [Tacrine hydrochloride hydrate] , according to its measured value.
low

Please report the category associated with CCCc1nc(C)c2c(=O)[nH]c(-c3cc(S(=O)(=O)N4CCN(CC)CC4)ccc3OCC)nn12 [Vardenafil] , nothing else.
high

Please indicate the class for Cc1nc2c([nH]1)CCN(C(=O)c1ccc(NC(=O)c3ccccc3-c3ccccc3)cc1)c1ccccc1-2.Cl [Conivaptan hydrochloride] based on its bioluminescence.
low

Textbook exercise: identify the category of the molecule given here, CC(CN(C)C)CN1c2ccccc2CCc2ccccc21.O=C(O)/C=C\C(=O)O (stereo unspecified) [Trimipramine maleate] , according to its measured value.
low

// bin(item) where item = CC1=C(/C=C/C(C)=C/C=C/C(C)=C/C(=O)O)C(C)(C)CCC1 [Tretinoin]
mid

# bin lookup: classify COc1ccccc1OCC(O)COC(N)=O (stereo unspecified) [Methocarbamol] by its bioluminescence
mid

Category lookup for the molecule CN(C)C(=N)NC(=N)N.Cl [Metformin hydrochloride]
high
